target: NMDA receptor composed of four subunits including 2 sets of heterodimers of NR1 and NR2B (Homo sapiens, UniProt Q13224)
Construct: host or cells: HEK293 (tetracycline-induced expression)
Sequence (Q13224 27-1484, other chains not shown): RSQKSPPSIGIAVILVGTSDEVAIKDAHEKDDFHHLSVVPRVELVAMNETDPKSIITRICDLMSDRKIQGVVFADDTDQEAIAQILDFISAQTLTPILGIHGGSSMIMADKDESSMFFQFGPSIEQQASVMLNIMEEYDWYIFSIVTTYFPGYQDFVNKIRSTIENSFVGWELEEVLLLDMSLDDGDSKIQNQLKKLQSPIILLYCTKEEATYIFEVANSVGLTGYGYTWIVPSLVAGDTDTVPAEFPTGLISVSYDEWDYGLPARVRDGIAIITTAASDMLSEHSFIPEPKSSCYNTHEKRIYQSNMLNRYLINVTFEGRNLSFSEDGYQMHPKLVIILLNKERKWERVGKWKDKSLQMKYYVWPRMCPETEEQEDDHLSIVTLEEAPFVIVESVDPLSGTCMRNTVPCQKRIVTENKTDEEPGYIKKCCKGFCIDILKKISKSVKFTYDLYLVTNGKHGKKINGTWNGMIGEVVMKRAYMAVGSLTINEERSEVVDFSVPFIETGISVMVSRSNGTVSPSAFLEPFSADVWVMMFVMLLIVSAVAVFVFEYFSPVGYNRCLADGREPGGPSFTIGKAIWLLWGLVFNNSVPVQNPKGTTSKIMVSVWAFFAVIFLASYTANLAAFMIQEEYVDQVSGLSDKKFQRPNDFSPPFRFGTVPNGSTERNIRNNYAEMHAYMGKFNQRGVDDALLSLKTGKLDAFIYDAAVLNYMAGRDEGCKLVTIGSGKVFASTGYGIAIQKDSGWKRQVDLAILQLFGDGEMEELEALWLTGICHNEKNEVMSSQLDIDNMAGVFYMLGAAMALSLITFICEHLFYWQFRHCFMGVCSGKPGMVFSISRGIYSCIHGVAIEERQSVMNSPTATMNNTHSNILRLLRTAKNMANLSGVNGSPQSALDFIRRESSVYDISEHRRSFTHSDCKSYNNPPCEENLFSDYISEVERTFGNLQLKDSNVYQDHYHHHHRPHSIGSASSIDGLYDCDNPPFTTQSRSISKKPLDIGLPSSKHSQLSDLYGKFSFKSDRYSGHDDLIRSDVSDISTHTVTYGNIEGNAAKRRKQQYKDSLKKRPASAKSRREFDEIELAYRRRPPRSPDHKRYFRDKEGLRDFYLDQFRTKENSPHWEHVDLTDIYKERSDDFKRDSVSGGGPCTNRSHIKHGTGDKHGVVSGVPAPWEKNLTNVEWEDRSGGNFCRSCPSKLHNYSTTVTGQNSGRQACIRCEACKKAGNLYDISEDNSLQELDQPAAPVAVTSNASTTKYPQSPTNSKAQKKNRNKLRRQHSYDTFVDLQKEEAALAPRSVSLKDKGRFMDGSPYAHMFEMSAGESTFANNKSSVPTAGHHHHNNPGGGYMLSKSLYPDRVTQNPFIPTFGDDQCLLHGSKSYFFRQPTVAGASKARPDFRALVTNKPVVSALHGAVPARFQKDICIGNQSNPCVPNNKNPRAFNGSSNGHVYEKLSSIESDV
test-details: NR2B Ca2+ influx assay (FLIPR, Fluo-4) in HEK293 cells expressing human GRIN1 and GRIN2B
Format: cell-based
assay-conditions: HEK293, 10 μM final compound concentration, glutamic acid/glycine-induced Ca2+ influx, read-out: inhibitory rate (10 μM compound concentration)
Quick reference: inhibition at 10 µM of the listed items.
Could you give me the number in %? Just the number is fine.

                              line_notation    reported_property  meas_value
0  COc1ccc2ncn(C)c2c1CNC(=O)Nc1ccc(C(F)(F)F)cc1  inhibition at 10 µM          91
1  CCc1ccc2ncn(C)c2c1CNC(=O)c1ccc(OC)c(F)c1  inhibition at 10 µM          91
2     CCc1ccc2ncn(C)c2c1CNC(=O)c1ccc(OC)cc1  inhibition at 10 µM          92
3  COc1c(F)cc(C(=O)NCc2c(F)ccc3ncn(C)c23)cc1F  inhibition at 10 µM          90
4      COc1ccc2ncn(C)c2c1CNC(=O)c1csc(Cl)c1  inhibition at 10 µM          90

Inquiry: What value of inhibition at 10 µM has been reported for the following compound? COc1ccc2ncn(C)c2c1CNC(=O)c1cc(Cl)c(Cl)s1
Reply text: 91

Inquiry: Could you share which inhibition at 10 µM value was measured for Cc1ccc2[nH]nnc2c1CNC(=O)c1cc(F)c(Cl)c(F)c1 ?
Reply text: 90

----------
target: NMDA receptor composed of four subunits including 2 sets of heterodimers of NR1 and NR2B (Homo sapiens)
Construct: host or cells: HEK293 (tetracycline-induced expression)
test-details: NR2B Ca2+ influx assay (FLIPR, Fluo-4) in HEK293 cells expressing human GRIN1 and GRIN2B
Format: cell-based
assay-conditions: HEK293, 10 μM final compound concentration, glutamic acid/glycine-induced Ca2+ influx, read-out: inhibitory rate (10 μM compound concentration)
reported-property: inhibition at 10 µM (%)
State just the number; it will be interpreted in %.

In [3]: df
Out[3]:
                             line_notation  result_units  meas_value
0  COc1c(F)cc(C(=O)NCc2cccc3[nH]ncc23)cc1F             %          89

Inquiry: State the recorded inhibition at 10 µM for this entry: COc1ccc2ncn(C)c2c1CNC(=O)c1ccc(F)c(Cl)c1
Reply text: 91

Inquiry: Can you share its inhibition at 10 µM? I mean this compound: CCc1ccc(C(=O)NCc2c(OC)ccc3ncn(C)c23)s1
Reply text: 90

Inquiry: Using the record for CCc1ccc2ncn(C)c2c1CNC(=O)c1cnc(OC(F)F)c(F)c1 , report its inhibition at 10 µM.
Reply text: 91
